Data origin: ChEMBL document CHEMBL5036322

molecular target: Protein cereblon/DNA damage-binding protein 1 (Homo sapiens, UniProt Q96SW2)
Sequence (Q96SW2 whole entry): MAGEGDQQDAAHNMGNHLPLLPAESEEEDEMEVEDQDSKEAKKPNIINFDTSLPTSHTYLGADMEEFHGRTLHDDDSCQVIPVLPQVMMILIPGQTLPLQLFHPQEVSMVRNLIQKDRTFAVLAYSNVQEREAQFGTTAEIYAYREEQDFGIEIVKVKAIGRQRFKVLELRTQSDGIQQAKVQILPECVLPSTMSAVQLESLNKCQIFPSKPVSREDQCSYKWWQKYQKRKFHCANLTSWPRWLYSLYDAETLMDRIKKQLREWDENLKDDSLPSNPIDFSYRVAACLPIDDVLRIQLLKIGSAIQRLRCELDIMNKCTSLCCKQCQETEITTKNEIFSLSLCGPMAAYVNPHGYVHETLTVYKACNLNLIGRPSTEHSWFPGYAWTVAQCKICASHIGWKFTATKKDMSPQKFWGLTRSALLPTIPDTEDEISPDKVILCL
Sequence (Q16531 whole entry, further chain): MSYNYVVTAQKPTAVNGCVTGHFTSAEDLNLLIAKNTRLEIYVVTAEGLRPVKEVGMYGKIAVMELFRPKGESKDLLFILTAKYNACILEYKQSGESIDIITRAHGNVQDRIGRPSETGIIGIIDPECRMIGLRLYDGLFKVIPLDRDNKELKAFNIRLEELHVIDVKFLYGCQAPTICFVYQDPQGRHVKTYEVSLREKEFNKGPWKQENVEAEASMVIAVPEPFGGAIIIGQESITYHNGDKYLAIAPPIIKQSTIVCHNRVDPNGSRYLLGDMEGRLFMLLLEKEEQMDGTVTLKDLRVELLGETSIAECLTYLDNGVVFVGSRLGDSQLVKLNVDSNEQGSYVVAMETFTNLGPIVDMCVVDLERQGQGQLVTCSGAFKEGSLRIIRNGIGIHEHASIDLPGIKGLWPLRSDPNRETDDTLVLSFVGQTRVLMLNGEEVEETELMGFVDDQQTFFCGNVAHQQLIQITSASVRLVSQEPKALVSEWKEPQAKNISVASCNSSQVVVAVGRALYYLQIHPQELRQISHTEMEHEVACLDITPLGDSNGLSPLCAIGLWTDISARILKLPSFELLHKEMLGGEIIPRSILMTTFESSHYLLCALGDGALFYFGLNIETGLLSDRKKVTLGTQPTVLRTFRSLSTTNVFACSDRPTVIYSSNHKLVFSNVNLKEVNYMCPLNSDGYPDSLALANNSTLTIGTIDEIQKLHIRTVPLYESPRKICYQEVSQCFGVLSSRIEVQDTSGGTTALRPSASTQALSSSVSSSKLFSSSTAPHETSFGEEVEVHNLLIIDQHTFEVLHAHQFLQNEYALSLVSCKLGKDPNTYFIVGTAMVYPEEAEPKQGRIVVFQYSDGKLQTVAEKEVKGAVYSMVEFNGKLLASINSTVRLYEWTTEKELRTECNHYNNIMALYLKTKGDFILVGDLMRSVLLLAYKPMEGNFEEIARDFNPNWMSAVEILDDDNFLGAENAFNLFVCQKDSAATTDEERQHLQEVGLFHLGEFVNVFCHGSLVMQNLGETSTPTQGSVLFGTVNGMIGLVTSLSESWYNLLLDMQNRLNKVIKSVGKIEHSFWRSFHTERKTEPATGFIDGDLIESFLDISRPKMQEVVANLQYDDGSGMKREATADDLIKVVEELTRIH
Quantity Kind: log10 of IC50 (log10 of the value in nM)
Please be aware that the numbers have been log10-transformed from IC50 in nM.

Answered cases to consult:
Compound | Quantity Kind | Assay Value
O=C1CCC(N2C(=O)c3ccc(NS(=O)(=O)c4ccccc4C(F)(F)F)cc3C2=O)C(=O)N1 (centres undefined) | log10 of IC50 | 2.53
O=C1CCC(N2C(=O)c3ccc(NS(=O)(=O)c4cccc(OC(F)(F)F)c4)cc3C2=O)C(=O)N1 (centres undefined) | log10 of IC50 | 1.00
COc1ccccc1S(=O)(=O)Nc1ccc2c(c1)C(=O)N(C1CCC(=O)NC1=O)C2=O (centres undefined) | log10 of IC50 | 2.79

What value of log10 of IC50 on Protein cereblon/DNA damage-binding protein 1 (Homo sapiens, UniProt Q96SW2) does O=C1CCC(N2C(=O)c3ccc(NS(=O)(=O)c4ccc(OC(F)(F)F)cc4)cc3C2=O)C(=O)N1 (centres undefined) have?
0.95

Any idea what log10 of IC50 came out for Cc1ccccc1S(=O)(=O)Nc1ccc2c(c1)C(=O)N(C1CCC(=O)NC1=O)C2=O (centres undefined) on Protein cereblon/DNA damage-binding protein 1 (Homo sapiens, UniProt Q96SW2)?
1.04

Give the reported log10 of IC50 for O=C1CCC(N2C(=O)c3ccc(NS(=O)(=O)c4cccc(Cl)c4)cc3C2=O)C(=O)N1 (centres undefined) (system: Protein cereblon/DNA damage-binding protein 1 (Homo sapiens, UniProt Q96SW2)).
1.36

API: value(readout=log10 of IC50, system=Protein cereblon/DNA damage-binding protein 1 (Homo sapiens, UniProt Q96SW2)) for record Cc1ccc(NC(=O)NCc2ccc3c(c2)CN(C2CCC(=O)NC2=O)C3=O)cc1Cl (centres undefined)
1.26

Write down the reported log10 of IC50 of Cc1ccc(S(=O)(=O)Nc2ccc3c(c2)C(=O)N(C2CCC(=O)NC2=O)C3=O)cc1Cl (centres undefined) , test system: Protein cereblon/DNA damage-binding protein 1 (Homo sapiens, UniProt Q96SW2).
0.00

Query for Protein cereblon/DNA damage-binding protein 1 (Homo sapiens, UniProt Q96SW2): what log10 of IC50 does the record show for O=C1CCC(N2C(=O)c3ccc(NS(=O)(=O)c4ccccc4)cc3C2=O)C(=O)N1 (centres undefined) ?
0.48
